Reported Kd values are given for each entry in this list.
system tested: TSLP, Q969D9
method notes: Kd (SPR)
I only need the number, in nM, no unit after it.

Below are worked cases with known answers.
binder	Kd, nM
unnamed (protein) chain 1: QMQLVESGGGVVQPGRSLRLSCAASGFTFRTYGMHWVRQAPGKGLEWVAVIWYDGSNKHYADSVKGRFTITRDNSKNTLNLQMNSLRAEDTAVYYCARSPRYDWYYEAFDVWGQGTMVTVSS chain 2: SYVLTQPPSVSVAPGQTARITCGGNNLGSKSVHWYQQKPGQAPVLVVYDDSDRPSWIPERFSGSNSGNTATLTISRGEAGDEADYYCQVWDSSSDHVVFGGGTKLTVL	122
unnamed (protein) chain 1: QMQLVESGGGVVQPGRSLRLSCAASGFTFRTYGMHWVRQAPGKGLEWVAVIWYDGSNKHYADSVKGRFTITRDNSKNTLNLQMNSLRAEDTAVYYCARSPRYDEYYEAFDVWGQGTMVTVSS chain 2: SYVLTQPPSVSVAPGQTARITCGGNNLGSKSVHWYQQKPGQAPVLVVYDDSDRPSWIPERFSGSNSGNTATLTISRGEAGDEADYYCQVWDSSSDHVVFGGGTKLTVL	242

What Kd value was documented for this binder, unnamed (protein) chain 1: QMQLVESGGGVVQPGRSLRLSCAASGFTFSTFAMHWVRQAPGKGLEWVAVIWYDGSNKHYADSVKGRFTITRDNSKNTLNLQMNSLRAEDTAVYYCARSPRYYDYYEAFDVWGQGTMVTVSS chain 2: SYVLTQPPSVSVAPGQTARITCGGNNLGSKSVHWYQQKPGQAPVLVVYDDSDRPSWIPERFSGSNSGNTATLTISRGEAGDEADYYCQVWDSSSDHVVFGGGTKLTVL ?
41.8
